The reported numbers originate from patent US7745575B1.

# measured_target: T1, hKv3.2 (human (only by the printed prefix h), UniProt Q96PR1)
# T1 sequence: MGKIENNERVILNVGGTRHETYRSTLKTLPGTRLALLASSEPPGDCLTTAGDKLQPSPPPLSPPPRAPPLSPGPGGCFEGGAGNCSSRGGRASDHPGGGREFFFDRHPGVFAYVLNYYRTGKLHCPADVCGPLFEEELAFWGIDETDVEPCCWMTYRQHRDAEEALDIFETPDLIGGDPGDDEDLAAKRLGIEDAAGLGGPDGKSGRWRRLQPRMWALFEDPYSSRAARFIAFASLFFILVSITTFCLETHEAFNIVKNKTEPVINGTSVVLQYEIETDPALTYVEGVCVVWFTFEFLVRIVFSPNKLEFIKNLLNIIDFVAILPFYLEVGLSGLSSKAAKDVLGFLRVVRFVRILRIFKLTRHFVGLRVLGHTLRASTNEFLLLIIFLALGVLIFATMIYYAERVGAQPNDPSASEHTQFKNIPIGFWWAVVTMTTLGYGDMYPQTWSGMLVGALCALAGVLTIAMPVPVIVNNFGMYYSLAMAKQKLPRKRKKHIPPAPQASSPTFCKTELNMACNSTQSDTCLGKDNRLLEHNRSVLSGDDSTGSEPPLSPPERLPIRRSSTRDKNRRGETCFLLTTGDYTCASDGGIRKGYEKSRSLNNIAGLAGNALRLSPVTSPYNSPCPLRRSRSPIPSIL
# assay: cell-based or functional assay
Ends that are not written are not given here.
Consider the following binders; for each one, report its ID50.

Q: Find the recorded ID50 belonging to GVIINVKCKISRQCLEPCKKAGMRFGKCMNGKCHCTPK [OsK1] and report it.
Result: > 1000 nM

Q: Item: GVIINVKCKISRQCLEPCKKAGMRFGKCMNGKCHCTPK-NH2 (ends and bridges not checked) [OsK1-NH2]
Result: > 1000 nM

Q: // next record Ac-GVIINVKCKISRQCLEPCKKAGMRFGKCMNGKCHCTPK-NH2 (ends and bridges not checked) [Ac-OsK1-NH2]
Result: > 1000 nM

Q: Repeat with VIINVKCKISRQCLEPCKKAGMRFGKCMNGKCHCTPK-NH2 (ends and bridges not checked) [[Δ^1]-OsK1-NH2]
Result: > 1000 nM
